target: Primary amine oxidase (Pisum sativum); experiment: Inhibition of putrescine binding to pea seedling amine oxidase; design: species or system Lathyrus oleraceus
Sequence (Q43077 whole entry): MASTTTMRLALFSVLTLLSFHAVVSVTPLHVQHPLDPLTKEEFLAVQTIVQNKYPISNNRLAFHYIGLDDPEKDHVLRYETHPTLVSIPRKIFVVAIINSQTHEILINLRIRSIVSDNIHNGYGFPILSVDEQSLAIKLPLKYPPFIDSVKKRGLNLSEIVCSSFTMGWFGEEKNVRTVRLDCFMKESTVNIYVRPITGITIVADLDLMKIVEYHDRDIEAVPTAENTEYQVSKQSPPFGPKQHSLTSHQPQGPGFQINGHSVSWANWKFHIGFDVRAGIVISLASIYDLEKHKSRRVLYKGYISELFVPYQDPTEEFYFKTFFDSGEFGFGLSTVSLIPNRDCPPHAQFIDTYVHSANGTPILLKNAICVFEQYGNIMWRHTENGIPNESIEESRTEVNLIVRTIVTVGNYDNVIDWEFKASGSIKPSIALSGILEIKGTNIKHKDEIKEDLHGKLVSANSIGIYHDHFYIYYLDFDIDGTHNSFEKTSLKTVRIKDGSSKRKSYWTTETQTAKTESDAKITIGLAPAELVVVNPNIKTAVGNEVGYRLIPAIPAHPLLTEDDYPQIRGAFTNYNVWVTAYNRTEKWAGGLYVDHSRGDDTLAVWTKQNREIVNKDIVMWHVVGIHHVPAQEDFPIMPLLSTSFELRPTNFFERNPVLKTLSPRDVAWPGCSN
measurementType: IC50 (µM)
State just the number; it will be interpreted in µM.

Dear colleague, I am looking for the recorded IC50 of the following molecule: CNc1cnccc1CN
0.71

###

target: Peroxisomal primary amine oxidase (Pichia angusta, UniProt P12807); assay: Inhibition of phenylethylamine binding to Hansenula polymorpha amine oxidase
Sequence (P12807 whole entry): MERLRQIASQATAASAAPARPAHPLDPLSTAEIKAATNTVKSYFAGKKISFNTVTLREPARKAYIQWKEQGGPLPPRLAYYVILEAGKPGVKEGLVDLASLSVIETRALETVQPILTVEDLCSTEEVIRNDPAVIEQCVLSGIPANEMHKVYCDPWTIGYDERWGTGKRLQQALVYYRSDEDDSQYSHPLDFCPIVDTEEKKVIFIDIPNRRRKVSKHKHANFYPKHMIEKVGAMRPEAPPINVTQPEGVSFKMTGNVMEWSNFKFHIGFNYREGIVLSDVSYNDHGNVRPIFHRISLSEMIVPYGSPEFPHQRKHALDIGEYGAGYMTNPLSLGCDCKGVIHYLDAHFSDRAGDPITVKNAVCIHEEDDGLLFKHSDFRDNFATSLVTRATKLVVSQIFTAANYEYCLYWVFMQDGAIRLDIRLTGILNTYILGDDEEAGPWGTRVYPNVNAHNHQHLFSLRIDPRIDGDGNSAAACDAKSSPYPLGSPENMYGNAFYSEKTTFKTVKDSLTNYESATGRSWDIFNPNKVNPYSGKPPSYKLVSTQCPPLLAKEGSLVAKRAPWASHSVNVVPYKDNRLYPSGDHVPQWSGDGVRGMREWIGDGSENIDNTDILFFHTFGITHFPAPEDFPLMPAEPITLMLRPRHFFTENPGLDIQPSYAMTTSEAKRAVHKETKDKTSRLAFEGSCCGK
measurementType: pIC50
Please treat pIC50 as minus the base-10 logarithm of the molar concentration.

Query: pIC50; subject: CNc1cnccc1CN
4.28

###

target: Peroxisomal primary amine oxidase (Pichia angusta, UniProt P12807); assay: Inhibition of beta-phenylethylamine binding to Hansenula polymorpha amine oxidase; design: species or system Ogataea angusta
measurementType: IC50 (µM)
Provide only the numeric value, understood in µM.

Please review the entries below; each comes with its answer.
# smilesData, assayedTarget, endpointUnit, IC50
measured = [
    ("CCNc1cncc(N(C)CC)c1CN", "Peroxisomal primary amine oxidase (Pichia angusta, UniProt P12807)", "µM", 350),
    ("NCc1ccncc1NC1CCCC1", "Peroxisomal primary amine oxidase (Pichia angusta, UniProt P12807)", "µM", 700),
    ("CNc1ccccc1CN", "Peroxisomal primary amine oxidase (Pichia angusta, UniProt P12807)", "µM", 750),
    ("CCNc1cnccc1CN", "Peroxisomal primary amine oxidase (Pichia angusta, UniProt P12807)", "µM", 87),
    ("NCc1ccncc1NCC1CCCCC1", "Peroxisomal primary amine oxidase (Pichia angusta, UniProt P12807)", "µM", 540),
]

Shift focus to the following entry.
Query (compound): CNc1cncc(N(C)C)c1CN ; field requested: IC50
100
